# tested.on: T1, Chryseobacterium sp-62563 deamidase polypeptide (second polypeptide, deamidase domain), wildtype (Chryseobacterium sp-62563)
# T1 sequence: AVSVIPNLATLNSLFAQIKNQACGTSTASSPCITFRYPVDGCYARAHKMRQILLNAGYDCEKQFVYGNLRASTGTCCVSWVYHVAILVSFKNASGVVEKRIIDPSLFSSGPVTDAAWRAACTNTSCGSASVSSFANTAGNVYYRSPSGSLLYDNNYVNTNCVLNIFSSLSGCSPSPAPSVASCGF
# procedure.summary: cell-based or functional assay
property.name: Relative activity of maturated deamidase (% initial rate)
# print the numeric value only

Completed entries (count: 2):
Chryseobacterium sp-62563 propeptide E67A (protein) NQDPNLVAKESNETAMKDFGKTVPVGIEKEDGKFKISFMVTAQPYEIKDSKENAAYISMIKTAVENATPIHVFLKANTNEIAKVDKATDDDIRYFKSVFTKEVKEENRK :: 46
Chryseobacterium sp-62563 propeptide I92G (protein) NQDPNLVAKESNETAMKDFGKTVPVGIEKEDGKFKISFMVTAQPYEIKDSKENAAYISMIKTAVENETPIHVFLKANTNEIAKVDKATDDDGRYFKSVFTKEVKEENRK :: 69

Reported Relative activity of maturated deamidase (% initial rate), binder Chryseobacterium sp-62563 propeptide F38T (protein) NQDPNLVAKESNETAMKDFGKTVPVGIEKEDGKFKISTMVTAQPYEIKDSKENAAYISMIKTAVENETPIHVFLKANTNEIAKVDKATDDDIRYFKSVFTKEVKEENRK : ____
93
